biological target: biotinylated labeled human GPC3 protein (produced in-house) (human, UniProt P51654 25-559, limits assumed, biotinylated (Dojindo, Cat. No. LK03); sites not stated); experiment: ELISA, biotinylated human GPC3 protein
MEASURED ENDPOINT: OD450 at 0.004 nM (OD450)
Value expressed in OD450; do not type the unit.

In the examples that follow, each entry is paired with its recorded OD450 at 0.004 nM.
hAb006LH1L1b (antibody, human IgG1, V domains shown, Humanized F3.38.7; VH H1 + VL L1b; expressed as human IgG1) VH: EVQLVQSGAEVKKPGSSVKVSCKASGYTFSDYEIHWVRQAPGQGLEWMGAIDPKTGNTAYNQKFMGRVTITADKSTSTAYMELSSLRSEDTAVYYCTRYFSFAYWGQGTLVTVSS VL: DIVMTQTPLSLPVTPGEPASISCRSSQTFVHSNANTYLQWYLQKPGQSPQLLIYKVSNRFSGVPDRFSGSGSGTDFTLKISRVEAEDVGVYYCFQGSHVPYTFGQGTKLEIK    0.288
hAb001H2L1b (antibody, human IgG1, V domains shown, Humanized F2.169.2; VH H2 + VL L1b; expressed as human IgG1) VH: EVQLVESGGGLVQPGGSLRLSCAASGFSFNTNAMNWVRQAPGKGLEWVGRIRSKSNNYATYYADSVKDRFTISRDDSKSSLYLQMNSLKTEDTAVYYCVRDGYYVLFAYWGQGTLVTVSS VL: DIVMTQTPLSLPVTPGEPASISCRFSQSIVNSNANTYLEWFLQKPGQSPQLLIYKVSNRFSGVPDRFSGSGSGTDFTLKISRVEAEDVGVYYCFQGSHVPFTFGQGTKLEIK    0.287

Query: Please give the measured OD450 at 0.004 nM for this binder: hAb003LH3L1a (antibody, human IgG1, V domains shown, Humanized F2.154.1; VH H3 + VL L1a; expressed as human IgG1) VH: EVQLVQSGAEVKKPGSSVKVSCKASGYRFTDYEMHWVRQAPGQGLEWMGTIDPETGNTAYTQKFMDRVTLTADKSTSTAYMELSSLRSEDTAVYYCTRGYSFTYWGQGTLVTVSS VL: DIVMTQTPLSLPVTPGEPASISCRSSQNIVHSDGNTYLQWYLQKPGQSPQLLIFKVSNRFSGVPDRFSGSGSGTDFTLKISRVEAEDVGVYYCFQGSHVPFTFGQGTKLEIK
Response: 0.128
